Below, each of the compounds is paired with its reported TGI value.
- System: NCI-H226 lung
- assay-summary: NCI tumour cell line growth inhibition, 48 h

- compound: "C/C=C1\\CN2CCc3c([nH]c4ccccc34)C2CC1CCO (stereo unspecified)"
  assay-system: "NCI-H226 lung"
  TGI: "> 100 µM"
- compound: "CC(=O)NCC1OC2COC(c3ccccc3)OC2C(NC(=O)c2ccccc2)C1OC(=O)c1ccccc1 (stereo unspecified)"
  assay-system: "NCI-H226 lung"
  TGI: "> 100 µM"
- compound: "CC(=O)NC(NCCN)(c1ccccc1)c1ccccc1"
  assay-system: "NCI-H226 lung"
  TGI: "> 100 µM"
- compound: "O=C(Nc1ccc(Cl)cc1Cl)OC(Cn1cncn1)c1ccc(Cl)cc1Cl (stereo unspecified)"
  assay-system: "NCI-H226 lung"
  TGI: "39 µM"
- compound: "CC(=O)N1N=C(c2ccc(Nc3nc(Nc4ccc(F)cc4)nc(Nc4ccc(F)cc4)n3)cc2)CC1c1ccc(N(C)C)cc1 (stereo unspecified)"
  assay-system: "NCI-H226 lung"
  TGI: "14.9 µM"
- compound: "Cc1ccc2nc(C(C)C)c(=O)[nH]c2c1"
  assay-system: "NCI-H226 lung"
  TGI: "> 100 µM"

* * *

- System: A549 NSCLC
- assay-summary: NCI tumour cell line growth inhibition, 48 h
# TGI listing for each entry below

- compound: "O=C(CCN1CCCCC1)N1CCc2c([nH]c3ccccc23)C1c1cccnc1 (configuration not stated)"
  TGI: "> 100 µM"
- compound: "O=C(Nc1ccc(Cl)cc1Cl)OC(Cn1cncn1)c1ccc(Cl)cc1Cl (configuration not stated)"
  TGI: "33 µM"
- compound: "COC(=O)c1oc2c(C(=O)/C=C/c3ccc(OC)cc3)c(OCCN(C)C)ccc2c1C"
  TGI: "23 µM"
- compound: "O=C1c2ccccc2-c2c1c1ccccc1c(=O)n2CCCNCCn1c2c(c3ccccc3c1=O)C(=O)c1ccccc1-2"
  TGI: "26.3 µM"
- compound: "CC(=O)[C@H]1CCC2[C@@H]3CC=C4C[C@@H]([O-])CC[C@]4(C)C3CC[C@@]21C.CC(=O)[C@H]1CCC2[C@@H]3CC=C4C[C@@H]([O-])CC[C@]4(C)C3CC[C@@]21C.CC(=O)[CH-]C(=O)c1ccccc1.CC(=O)[CH-]C(=O)c1ccccc1.Cl.[Ti+4] (some centres not stated)"
  TGI: "> 100 µM"
- compound: "O=C1O[C@H]2[C@H](OC(=O)c3cc(O)c(O)c(O)c3)[C@@H](OC(=O)c3cc(O)c(O)c4c3[C@@H]3C1=CC(=O)C(O)(O)C3(O)O4)[C@H](OC(=O)c1cc(O)c(O)c(O)c1)O[C@@H]2COC(=O)c1cc(O)c(O)c(O)c1 (some centres not stated)"
  TGI: "> 100 µM"
- compound: "COc1cc(OC)cc(-c2cc(=O)c3cc4c(cc3[nH]2)OCO4)c1"
  TGI: "45.1 µM"

* * *

- Tested on: EKVX NSCLC
- assay-summary: NCI tumour cell line growth inhibition, 48 h
Overview of recorded TGI for various molecules

- molecule: "COC1OC2COC(C)(C)OC2C(OC(C)=O)C1NC(=O)N(CCCl)N=O (stereo unspecified)"
  TGI: "> 100 µM"
- molecule: "O=C1/C(=C/c2ccccc2[N+](=O)[O-])N=C(c2ccccc2)N1c1nc2ccccc2s1"
  TGI: "> 100 µM"
- molecule: "CCN(CC)CCN(C)c1ccc(CO)c2c1C(=O)c1ccccc1S2=O (stereo unspecified)"
  TGI: "13.6 µM"
- molecule: "CC(C)=CCCC(C)CCOS(=O)C(F)(F)F (stereo unspecified)"
  TGI: "30.2 µM"
- molecule: "O=[N+]([O-])c1cc([N+](=O)[O-])c(Nn2c3ccccc3c3ccccc32)c([N+](=O)[O-])c1"
  TGI: "7.64 µM"
- molecule: "COc1cc(C2c3cc4c(cc3C(OC(=O)C[n+]3ccccc3)C3COC(=O)C23)OCO4)cc(OC)c1OC (stereo unspecified)"
  TGI: "> 100 µM"
- molecule: "C/C(=N\\NC(=O)c1ccccc1O)c1cccc(/C(C)=N/NC(=O)c2ccccc2O)n1.O=S(=O)([O-])[O-].[Fe+2]"
  TGI: "> 100 µM"
- molecule: "CC(=O)NNc1nc(C)c(C(/C=C/c2ccccc2O)=N/N=C(N)N)s1"
  TGI: "> 100 µM"
- molecule: "CCOC(=O)c1c(NC(=S)Nc2ccc(Cl)cc2)sc2c1CCN(C)C2"
  TGI: "> 100 µM"
- molecule: "O=C1NN(Cc2ccccc2)C(=O)N2CCC[C@@H]12"
  TGI: "> 100 µM"
- molecule: "Cc1cccc2sc(-c3ccc(O)cc3)nc12"
  TGI: "16.8 µM"
- molecule: "O=[N+]([O-])c1ccc(-n2nc3ccc4c(no[n+]4[O-])c3n2)cc1"
  TGI: "> 100 µM"
- molecule: "O=C1O/C(=C/c2ccccc2)C(c2ccccc2)=C1O"
  TGI: "> 100 µM"
- molecule: "NS(=O)(=O)c1cc(C(=O)O)c(O)c2ccccc12"
  TGI: "> 100 µM"
- molecule: "COc1ccc(N=NC(=O)NC(CC(C)C)C(=O)NCC(=O)O)cc1 (stereo unspecified)"
  TGI: "> 100 µM"
- molecule: "Fc1ccc2c3c([nH]c2c1)CCN(Cc1ccccc1)C3"
  TGI: "48.7 µM"
- molecule: "O=C(N/N=C/c1cc(Br)cc(Br)c1[O-])c1ccccc1O.O=C(N/N=C/c1cc(Br)cc(Br)c1[O-])c1ccccc1O.[Zn+2]"
  TGI: "10.9 µM"
- molecule: "CCCCCCCC/C=C/CCCCCCCC1=NC(C)(C)CN1CCO"
  TGI: "12.8 µM"
- molecule: "COC(=O)c1cc(NC(=O)Cc2c[nH]c3ccccc23)cn1C"
  TGI: "> 100 µM"
- molecule: "S=c1ncc2c([nH]1)C1c3ccccc3C2c2ccccc21"
  TGI: "> 100 µM"
- molecule: "COC(=O)/C=C1/OC(c2ccccc2)=C(C)C1=O"
  TGI: "32 µM"
